# Tested on: SK-OV-3 ovarian
# method.notes: NCI tumour cell line growth inhibition, 48 h
Provide the recorded TGI for the entries that follow.
Express it in µM; write the number only.

Can you look up the measured TGI of CC1(C)CCCCC1/C=C/C(CC(O)(C(F)(F)F)C(F)(F)F)=N\Nc1ccc([N+](=O)[O-])cc1[N+](=O)[O-] (configuration not stated) for me?
14.8

Entry CC1(C)CC[C@]2(CO)CC[C@]3(C)C(=CC[C@@H]4[C@@]5(C)CC[C@H](NCO)C(C)(C)[C@@H]5CC[C@]43C)[C@@H]2C1 : reported TGI = ?
9.06

So what's the measured TGI for this one? OC1CCC(COC(c2ccccc2)(c2ccccc2)c2ccccc2)O1 (configuration not stated)
36.6

Which measured TGI value corresponds to CC[C@@]1(O)C(=O)OCc2c1cc1n(c2=O)Cc2cc3c(OC)cccc3nc2-1 ?
4.41

What does the data say about its TGI? Entry: Cc1ccc(NC(=O)C23CC4CC(CC(C4)C2)C3)c(C(=O)NNC(=O)c2ccc(Cl)cc2)c1
39

Entry under review: Cl.Fc1c[c-]c(-c2ccccn2)c(F)c1.[Pt].c1ccc([PH+](c2ccccc2)c2ccccc2[PH+](c2ccccc2)c2ccccc2)cc1 . Reported TGI?
0.64

Returns the measured TGI for the input molecule. Input: CCOC(=O)c1c2c(n(Cc3ccccc3)c1C)-c1nc[nH]c1C(=O)C2=O
33.6

Reported TGI, molecule Cc1c(/C=N/NC(=S)Nc2ccc([N+](=O)[O-])cc2)c(=O)n(-c2ccccc2)n1C : ____
26.3

So what does the record say about TGI for CN1CCN(C(=O)OCc2nc3c(N4CCOCC4)nc(-c4ccccc4)nc3n2C)CC1 ?
9.13

I am curious: what TGI value has been reported for S=c1sc2sc(=S)sc2s1 ?
33.9

Any idea what TGI was measured for CC(=O)OCc1cc(OC(C)=O)c2cc3c(OC(C)=O)cccc3c(OC(C)=O)c2c1 ?
41.1

If you can, please state the reported TGI value of CNc1cccc(-c2cc(=O)c3cc4c(cc3[nH]2)OCO4)c1 .
1.07

Record request: TGI value, item COc1cc(/C=C(\C)c2ccc3c(c2)OCO3)cc(OC)c1OC
75.1
